// data source = patent US20190263922A1

Target: T1, human CD20 (human, UniProt P11836 1-297)
T1 construct: whole, on cells; Always presented on cells; also called MS4A1; CD20 WT
T1 sequence (looked up): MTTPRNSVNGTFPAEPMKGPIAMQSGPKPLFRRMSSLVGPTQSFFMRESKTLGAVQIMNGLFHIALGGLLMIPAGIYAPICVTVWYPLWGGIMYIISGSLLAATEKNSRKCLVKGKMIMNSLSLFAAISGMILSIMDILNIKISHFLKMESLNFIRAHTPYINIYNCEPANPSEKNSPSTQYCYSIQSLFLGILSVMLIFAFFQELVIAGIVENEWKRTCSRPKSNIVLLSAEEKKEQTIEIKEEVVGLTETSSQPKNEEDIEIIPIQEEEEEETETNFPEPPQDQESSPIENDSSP
Assay: LigandTracer Green, 10 nM FITC-labeled mAb on SKBR3-CD20 cells, OneToOne fit, competitive dissociation (100 nM unlabeled mAb of the same clone)
Procedure: Kinetics analysis of interactions between the mAbs and CD20 was performed by using the LigandTracer green Technology (Ridgeview Instruments AB). 10⁶ SKBR3-CD20 cells were seeded on one side of a 10 cm culture dish (Greiner) as target cell area and association of 10 nM FITC-labeled CD20 mAb was measured. For non-competitive or competitive dissociation, labeled mAb solution was replaced by RPMI culture medium or 100 nM unlabeled mAb of the same clone, respectively. […]
property-measured: kon (M⁻¹ s⁻¹)
Supply the numeric figure in M⁻¹ s⁻¹, leaving out any unit text.

Some binders with recorded kon:
binder="m9 (mIgG2c-CD20 mAb) (antibody, V domains shown, FITC-labelled antibody in the LigandTracer assay; the label positions are not defined., Mouse IgG2c hybridoma mAb; FITC-labeled in LigandTracer) VH: QAYLQQSGAELVRPGASVKMSCKASGYTFPSYNMHWVKQTPRQGLEWIGAIYPGNGDTSYNQKFKGKASQTVDKSSSTVYMQLSSLTSADSAVYFCARSRLFDSSYGWYFDVWGTGTTVTVSS VL: QIVLSQSPAILSAYPGEKVTMTCRARSSVSYIDWYQQKAGSSPKPWIYATSNLASGVPARFSGSGSGTSYSLTISRVEAEDAATYYCQQWTSNPPTFGGGTKLEIK" property_measured=kon unit_symbol="M⁻¹ s⁻¹" meas_value=53900
binder="m2 (mIgG2c-CD20 mAb) (antibody, V domains shown, FITC- or Alexa647-labelled in the kinetic assays; label sites not given, Mouse IgG2c hybridoma mAb; FITC- or Alexa647-labeled in the kinetic assays) VH: QAYLQQSGAELVRPGASVKMSCKASGYTFTSYNMHWVKQTPRQGLEWIGGIYPGNGDTSYNQKFKGKATLTVDKSSSTAYMQLSSLTSEDSAVYFCARYYYGSSYGAMDYWGQGTSVTVSS VL: QIVLSQSPAILSASPGEKVTMTCRASSSVSYMHWYQQKPGSSPKPWIYATSNLASGVPARFSGSGSGTSYSLTISRVEAADAATYYCHQWTFNPPTFGGGTKLEIK" property_measured=kon unit_symbol="M⁻¹ s⁻¹" meas_value=81700
binder="m1 (mIgG2c-CD20 mAb) (antibody, V domains shown, FITC- or Alexa647-labelled in the kinetic assays; label sites not given, Mouse IgG2c hybridoma mAb; FITC- or Alexa647-labeled in the kinetic assays) VH: QAYLQQSGAELVRPGASVKMSCKASGYTFTSYNLHWVKQTPRQGLEWIGAIYPGNGDTSYNQKFKGKATLTVDKSSSTAYMQLSRLTSEDSAVYFCARSNSYGSTYWYFDVWGTGTTVTVSS VL: QIVLSQSPAVLFASPGEKVTMTCRARSSVSYMDWYQQKPRSSPKPWIYATSNLASGVPARFSGSGSGTSYSLTISRVEAEDAATYYCQQWTSNPPTFGSGTKLEIK" property_measured=kon unit_symbol="M⁻¹ s⁻¹" meas_value=26100

[Q] Which kon value is on record for m10 (mIgG2c-CD20 mAb) (antibody, V domains shown, FITC-labelled in the LigandTracer assay; label sites not given, Mouse IgG2c hybridoma mAb; FITC-labeled in LigandTracer) VH: QAYLQQSGADLVRPGASVKMSCKASGFTFPSYNLHWVKQTPRQGLEWIGAIYPGNGDTSYNQKFKGKATLTVDKSSSTAYMQLSSLTSEDSAVYFCARSAYYGSNVWFFDVWGTGTTVTVSS VL: QIVLSQSPAILSASPGEKVTMTCRASSSVSYMDWYQQKPGSSPKPWIYATSNLASGVPTRFSGSGSGTSYSLTISRVEAEDAATYYCQQWISNPPTFGAGTKLDLK ?
[A] 55700
